// provenance: PubChem BioAssay AID1063

- assay.explanation: Leishmania major promastigote growth inhibition, primary screen (AID 1063);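 further: promastigotes grown with compound for 44 hours at 28 °C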
- settings: Leishmania major promastigotes, resazurin fluorescence viability; at 10 µM; hits give high values
Out of some 200,000 compounds screened, about 18,000 (9%) were called active. The sample holds actives, similar compounds and a random draw of the others, so the mix is not that of the screen.
# inhibition per record follows
API: value field is a number in %; no unit string.

These recorded examples may help you get a feel for the data.
compound	reading
Cc1ccc(N2C(=O)C3CC3C2=O)cc1 (stereo unspecified)	-5.37
COc1ccc(Cn2nnc3c(=O)[nH]c(C4CCN(C(=O)c5ccccc5Cl)CC4)nc32)cc1	-0.57
O=C(NNC(=S)Nc1ccccc1)c1cccc(S(=O)(=O)N2CCOCC2)c1	-4.58
COC(=O)C1=C(C)N(C)C(=S)NC1c1cc(OC)ccc1OC (stereo unspecified)	3.3
COc1ccc(OC)c(-n2c(=S)[nH]c3cc(C(=O)N4CCCCC4)ccc3c2=O)c1	-7.75

In: Name the reported inhibition value associated with the compound O=C(O)[C@@H]1CCCN1c1ncnc2sc3c(c12)CCC3
Out: -0.86

In: Name the reported inhibition value associated with the compound N/C(=N\OC(=O)CCc1ccccc1)c1cccnc1
Out: -5.44

In: Name the reported inhibition value associated with the compound CCCNS(=O)(=O)c1ccc(CCC(=O)N2CCCC2)cc1
Out: 1

In: Name the reported inhibition value associated with the compound COc1ccc(-n2cnc3cc(C(=O)NC4CCCC4)ccc32)cc1
Out: 1.49

In: Name the reported inhibition value associated with the compound CCN1CCN(CC(=O)Nc2sc3c(c2C#N)CCC3)CC1
Out: -1.23

In: Name the reported inhibition value associated with the compound CC(=O)/C(=N\Nc1ccc(Cl)cc1Cl)Sc1cccc2cccnc12
Out: 96.8
